- System: Pancreatin
- Test Name: Protease stability in simulated intestinal fluid (Pancreatin-SIF, FaSSIF)
- Format: in vitro ADME
- Protocol Conditions: 240 min, 1 μM peptide, 37° C., read-out: FaSSIF 240 (min), remaining percent of peptide
Starred links: 1 amine or outer side, 2 acyl side, 3 side chain; linkers in the order of their positions; H or OH if unused. Positions of bridges follow the written chain, without caps; N, C: chain ends. Non-standard residues stand in square brackets, D forms with d. Residues, ends and D or L forms follow the SMILES beside them. *: point of attachment. X6 = O=C(CCC(=O)[*:3])N[C@@H](CS[*:2])C(=O)[*:1]; Trp(7-Me) = Cc1cccc2c(C[C@H](N)C(=O)O)c[nH]c12; 2Nal = N[C@@H](Cc1ccc2ccccc2c1)C(=O)O; 3Pal = N[C@@H](Cc1cccnc1)C(=O)O; αMeL = CC(C)C[C@](C)(N)C(=O)O; Me2NCH2CH2 = CN(C)CC*; Sar = CNCC(=O)O
Readout Kind: remaining at 4 h, 1 µM (%)
Dear colleague, please return just the value in %, with no unit written.

Let me check: CC(=O)N[C@H]1CCCCNC(=O)[C@@H]2CSSC[C@H](NC(=O)[C@H](CC(C)C)NC(=O)[C@H](Cc3c[nH]c4c(C)cccc34)NC1=O)C(=O)N[C@@H](Cc1ccc(OCCN(C)C)cc1)C(=O)N[C@@H](Cc1ccc3ccccc3c1)C(=O)N[C@@](C)(CC(C)C)C(=O)N[C@H](C(=O)N[C@@H](CC(N)=O)C(=O)N[C@@H](Cc1cccnc1)C(=O)N(C)CC(N)=O)CCCCNC(=O)CCC(=O)N2 [compound 158] (Ac-K[Trp(7-Me)]LCY(Me2NCH2CH2)[2Nal][αMeL]KN[3Pal][Sar]-NH2; linker 1-4-8 via X6) , system Pancreatin, measured remaining at 4 h, 1 µM is 74

====

As shown below, each of these compounds has a reported remaining at 4 h, 1 µM value.
- Tested on: Pancreatin
- Test Name: Protease stability in simulated intestinal fluid (Pancreatin-SIF, FaSSIF)
- Format: in vitro ADME
- Protocol Conditions: 240 min, 1 μM peptide, 37° C., read-out: FaSSIF 240 (min), remaining percent of peptide
Starred links: 1 amine or outer side, 2 acyl side, 3 side chain; linkers in the order of their positions; H or OH if unused. Positions of bridges follow the written chain, without caps; N, C: chain ends. Non-standard residues stand in square brackets, D forms with d. Residues, ends and D or L forms follow the SMILES beside them. *: point of attachment. X3 = CN(CCCCC(=O)N[C@@H](CS[*:2])C(=O)[*:1])[*:3]; Trp(7-Me) = Cc1cccc2c(C[C@H](N)C(=O)O)c[nH]c12; X1 = O=C(CCCCN[*:3])N[C@@H](CS[*:2])C(=O)[*:1]; 2Nal = N[C@@H](Cc1ccc2ccccc2c1)C(=O)O; AEF = NCCOc1ccc(C[C@H](N)C(=O)O)cc1; 3Pal = N[C@@H](Cc1cccnc1)C(=O)O; αMeL = CC(C)C[C@](C)(N)C(=O)O; Thp = NC1(C(=O)O)CCOCC1; Me2NCH2CH2 = CN(C)CC*; Aib = CC(C)(N)C(=O)O; Ahx = NCCCCCC(=O)O; Ava = NCCCCC(=O)O; Sar = CNCC(=O)O
Supply the numeric figure in %, leaving out any unit text.

Here's what some known entries look like.
[
  {
    "Compound": "CC(=O)N[C@H]1CCCCNC(=O)[C@@H]2CSSC[C@H](NC(=O)[C@H](CCC(N)=O)NC(=O)[C@H](Cc3c[nH]c4ccccc34)NC1=O)C(=O)N[C@@H](Cc1ccc(OCCN)cc1)C(=O)N[C@@H](Cc1ccc3ccccc3c1)C(=O)NC(C)(C)C(=O)N[C@H](C(=O)N[C@@H](C)C(=O)N[C@H](CC(C)C)C(N)=O)CCC(=O)N(C)CCCCC(=O)N2 [compound 19] (Ac-KWQC[AEF][2Nal][Aib]EA[dL]-NH2; linker 1-4-8 via X3)",
    "remaining at 4 h, 1 µM (%)": 76
  },
  {
    "Compound": "C[C@@H](O)[C@@H]1NC(=O)[C@H](CC(N)=O)NC(=O)[C@@H]2CSSC[C@H](NC(=O)[C@H](CCC(N)=O)NC(=O)[C@H](Cc3c[nH]c4ccccc34)NC1=O)C(=O)N[C@@H](Cc1ccc(OCCN)cc1)C(=O)N[C@@H](Cc1ccc3ccccc3c1)C(=O)NC(C)(C)C(=O)N[C@H](C(=O)N[C@@H](CC(N)=O)C(=O)NCC(N)=O)CC(=O)NCCCCCC(=O)N2 [compound 9] ([Ahx]CNTWQC[AEF][2Nal][Aib]DNG-NH2; disulfide 2-7; lactam N-11)",
    "remaining at 4 h, 1 µM (%)": 85
  }
]

The compound listed as Cc1cccc2c(C[C@@H]3NC(=O)[C@H]([C@@H](C)O)NC(=O)[C@H](CC(N)=O)NC(=O)[C@@H]4CSSC[C@H](NC(=O)[C@H](CCC(N)=O)NC3=O)C(=O)N[C@@H](Cc3ccc(OCCN(C)C)cc3)C(=O)N[C@@H](Cc3ccc5ccccc5c3)C(=O)NC(C)(C)C(=O)N[C@H](C(=O)N[C@@H](CC(N)=O)C(=O)N[C@@H](Cc3c[nH]cn3)C(N)=O)CCC(=O)NCCCCC(=O)N4)c[nH]c12 [compound 52] ([Ava]CNT[Trp(7-Me)]QCY(Me2NCH2CH2)[2Nal][Aib]ENH-NH2; disulfide 2-7; lactam N-11) shows remaining at 4 h, 1 µM equal to 65

Looking up CC(=O)NCCCC[C@@H]1NC(=O)[C@H](Cc2c[nH]c3c(C)cccc23)NC(=O)[C@@H](NC(C)=O)CCCCNC(=O)[C@@H]2CSSC[C@H](NC1=O)C(=O)N[C@@H](Cc1ccc(OCCN(C)C)cc1)C(=O)N[C@@H](Cc1ccc3ccccc3c1)C(=O)NC1(CCOCC1)C(=O)N[C@H](C(=O)N[C@@H](CC(N)=O)C(=O)N[C@@H](Cc1cccnc1)C(=O)N(C)CC(N)=O)CCC(=O)NCCCCC(=O)N2 [compound 66] (Ac-K[Trp(7-Me)]K(Ac)CY(Me2NCH2CH2)[2Nal][Thp]EN[3Pal][Sar]-NH2; linker 1-4-8 via X1) , I see its remaining at 4 h, 1 µM listed as 88

For reference, reported remaining at 4 h, 1 µM for CC[C@H](C)[C@H](NC(=O)[C@H](CC(N)=O)NC(=O)[C@H](CC(N)=O)NC(=O)[C@@H]1CCC(=O)NCCCCC(=O)N[C@H]2CSSC[C@H](NC(=O)[C@H](CCCCNC(C)=O)NC(=O)[C@H](Cc3c[nH]c4ccccc34)NC(=O)[C@H]([C@@H](C)O)NC(=O)[C@H](CC(N)=O)NC2=O)C(=O)N[C@@H](Cc2ccc(OCCN(C)C)cc2)C(=O)N[C@@H](Cc2ccc3ccccc3c2)C(=O)NC(C)(C)C(=O)N1)C(N)=O [compound 38] ([Ava]CNTWK(Ac)CY(Me2NCH2CH2)[2Nal][Aib]ENNI-NH2; disulfide 2-7; lactam N-11) stands at 84

The recorded remaining at 4 h, 1 µM for CC(=O)N[C@H]1CCCCNC(=O)[C@@H]2CSSC[C@H](NC(=O)[C@H](CCC(N)=O)NC(=O)[C@H](Cc3c[nH]c4ccccc34)NC1=O)C(=O)N[C@@H](Cc1ccc(OCCN)cc1)C(=O)N[C@@H](Cc1ccc3ccccc3c1)C(=O)N[C@@](C)(CC(C)C)C(=O)N[C@H](C(=O)N[C@@H](CC(N)=O)C(=O)N[C@@H](CC(N)=O)C(N)=O)CCC(=O)N(C)CCCCC(=O)N2 [compound 14] (Ac-KWQC[AEF][2Nal][αMeL]ENN-NH2; linker 1-4-8 via X3) is 49

====

The entries below come with measured solubility at 2 h values attached.
- Test Name: Solubility testing of peptides at different pH
- Type: physicochemical
- Protocol Conditions: 50 mM phosphate buffer pH 6.5; target concentration 1 mg/ml; 2 hours agitation; read-out: Solubility Buffer pH 6.5
Starred links: 1 amine or outer side, 2 acyl side, 3 side chain; linkers in the order of their positions; H or OH if unused. Positions of bridges follow the written chain, without caps; N, C: chain ends. Non-standard residues stand in square brackets, D forms with d. Residues, ends and D or L forms follow the SMILES beside them. *: point of attachment. Trp(7-Me) = Cc1cccc2c(C[C@H](N)C(=O)O)c[nH]c12; X1 = O=C(CCCCN[*:3])N[C@@H](CS[*:2])C(=O)[*:1]; αMeLys(Me2) = CN(C)CCCC[C@](C)(N)C(=O)O; 2Nal = N[C@@H](Cc1ccc2ccccc2c1)C(=O)O; d2Nal = N[C@H](Cc1ccc2ccccc2c1)C(=O)O; 3Pal = N[C@@H](Cc1cccnc1)C(=O)O; Thp = NC1(C(=O)O)CCOCC1; Me2NCH2CH2 = CN(C)CC*; Aib = CC(C)(N)C(=O)O; Ava = NCCCCC(=O)O; Sar = CNCC(=O)O

[
  {
    "Compound": "CC[C@H](C)[C@H](NC(=O)[C@H](Cc1cccnc1)NC(=O)[C@H](CC(N)=O)NC(=O)[C@@H]1CCC(=O)NCCCCC(=O)N[C@H]2CSSC[C@H](NC(=O)[C@H](CCCCNC(C)=O)NC(=O)[C@H](Cc3c[nH]c4ccccc34)NC(=O)[C@H]([C@@H](C)O)NC(=O)[C@H](CC(N)=O)NC2=O)C(=O)N[C@@H](Cc2ccc(OCCN(C)C)cc2)C(=O)N[C@@H](Cc2ccc3ccccc3c2)C(=O)NC(C)(C)C(=O)N1)C(N)=O [compound 37] ([Ava]CNTWK(Ac)CY(Me2NCH2CH2)[2Nal][Aib]EN[3Pal]I-NH2; disulfide 2-7; lactam N-11)",
    "Measurement": "≥ 940 µg/mL"
  },
  {
    "Compound": "CC(=O)NCCCC[C@@H]1NC(=O)[C@H](Cc2c[nH]c3c(C)cccc23)NC(=O)[C@H]([C@@H](C)O)NC(=O)[C@H](CC(N)=O)NC(=O)[C@@H]2CSSC[C@H](NC1=O)C(=O)N[C@@H](Cc1ccc(OCCN(C)C)cc1)C(=O)N[C@@H](Cc1ccc3ccccc3c1)C(=O)NC1(CCOCC1)C(=O)N[C@H](C(=O)N[C@@H](CO)C(=O)N[C@@H](Cc1cccnc1)C(=O)N(C)CC(N)=O)CCC(=O)NCCCCC(=O)N2 [compound 56] ([Ava]CNT[Trp(7-Me)]K(Ac)CY(Me2NCH2CH2)[2Nal][Thp]ES[3Pal][Sar]-NH2; disulfide 2-7; lactam N-11)",
    "Measurement": "≥ 920 µg/mL"
  },
  {
    "Compound": "CC(=O)NCCCC[C@@H]1NC(=O)[C@H](Cc2c[nH]c3ccccc23)NC(=O)[C@@H](NC(C)=O)CCCCNC(=O)[C@@H]2CSSC[C@H](NC1=O)C(=O)N[C@@H](Cc1ccc(OCCN(C)C)cc1)C(=O)N[C@H](Cc1ccc3ccccc3c1)C(=O)N[C@@](C)(CCCCN(C)C)C(=O)N[C@H](C(=O)N[C@@H](CC(N)=O)C(=O)N[C@@H](Cc1cccnc1)C(=O)N(C)CC(N)=O)CCC(=O)NCCCCC(=O)N2 [compound 59] (Ac-KWK(Ac)CY(Me2NCH2CH2)[d2Nal][αMeLys(Me2)]EN[3Pal][Sar]-NH2; linker 1-4-8 via X1)",
    "Measurement": "≥ 1030 µg/mL"
  }
]

# input for lookup
// solubility at 2 h value for CC(=O)NCCCC[C@@H]1NC(=O)[C@H](Cc2c[nH]c3c(C)cccc23)NC(=O)[C@@H](NC(C)=O)CCCCNC(=O)[C@@H]2CSSC[C@H](NC1=O)C(=O)N[C@@H](Cc1ccc(OCCN(C)C)cc1)C(=O)N[C@@H](Cc1ccc3ccccc3c1)C(=O)NC1(CCOCC1)C(=O)N[C@H](C(=O)N[C@@H](CC(N)=O)C(=O)N[C@@H](Cc1cccnc1)C(=O)N(C)CC(N)=O)CCC(=O)NCCCCC(=O)N2 [compound 66] (Ac-K[Trp(7-Me)]K(Ac)CY(Me2NCH2CH2)[2Nal][Thp]EN[3Pal][Sar]-NH2; linker 1-4-8 via X1) : ≥ 1040 µg/mL
